test-target: UniProt P00176
Sequence (P00176 whole entry): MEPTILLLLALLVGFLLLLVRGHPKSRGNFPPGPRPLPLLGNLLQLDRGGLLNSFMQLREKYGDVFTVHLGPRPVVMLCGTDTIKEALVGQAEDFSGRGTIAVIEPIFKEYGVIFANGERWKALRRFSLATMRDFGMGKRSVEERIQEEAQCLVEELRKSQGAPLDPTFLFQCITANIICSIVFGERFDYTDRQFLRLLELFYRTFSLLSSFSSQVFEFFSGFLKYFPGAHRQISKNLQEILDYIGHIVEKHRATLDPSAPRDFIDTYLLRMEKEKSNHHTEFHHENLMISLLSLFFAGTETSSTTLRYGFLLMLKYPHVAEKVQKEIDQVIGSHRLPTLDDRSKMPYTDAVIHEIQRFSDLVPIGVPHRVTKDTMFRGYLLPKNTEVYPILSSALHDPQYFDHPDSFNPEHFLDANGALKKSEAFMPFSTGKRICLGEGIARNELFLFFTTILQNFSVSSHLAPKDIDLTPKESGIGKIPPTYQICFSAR
condition-info: formed from parent PCB by rat CYP2B1, 60 min; two enantioselective columns
Parameter: Average EF of 5-OH-PCB metabolite. Scope: all listed entries.
Kindly provide the number alone.

Known results for molecules:
{"smiles-code": "Oc1cc(Cl)c(Cl)c(-c2ccc(Cl)c(Cl)c2Cl)c1Cl", "test-target": "UniProt P00176", "Average EF of 5-OH-PCB metabolite": 0.85}
{"smiles-code": "Oc1cc(Cl)c(Cl)c(-c2ccc(Cl)cc2Cl)c1Cl", "test-target": "UniProt P00176", "Average EF of 5-OH-PCB metabolite": 0.17}
{"smiles-code": "Oc1cc(Cl)c(Cl)c(-c2c(Cl)ccc(Cl)c2Cl)c1Cl", "test-target": "UniProt P00176", "Average EF of 5-OH-PCB metabolite": 0.77}

Here is another molecule to look at.
For the molecule `Oc1cc(Cl)c(Cl)c(-c2cc(Cl)c(Cl)cc2Cl)c1Cl` , what Average EF of 5-OH-PCB metabolite is on record?
0.41
